# Experimental System: BRD4 (Homo sapiens, UniProt O60885)
# Construct: endogenous in cells
# Experiment Notes: Western blot, protein degradation (DC50)
# Type: cell-based
# Study Conditions: 6 h, western blot; read-out: BRD4 DC50 (6 h)
DC50 values, listed per item

The examples below pair each entry with its known result.
Molecule	Measurement Kind	Value Reported
CC[C@@H]1C(=O)N(C)c2cnc(Nc3ccc(C(=O)NCCCNCCCCC(=O)Nc4cccc5c4CN(C4CCC(=O)NC4=O)C5=O)cc3OC)nc2N1C1CCCC1 (stereo partly drawn) [UB-180658]	DC50	10 to 100 nM
CC[C@@H]1C(=O)N(C)c2cnc(Nc3ccc(C(=O)NCCNc4cccc5c4CN(C4CCC(=O)NC4=O)C5=O)cc3OC)nc2N1C1CCCC1 (stereo partly drawn) [UB-180567]	DC50	> 1000 nM
CC[C@@H]1C(=O)N(C)C2CNC(Nc3ccc(C(=O)NCCCNCCCC(=O)Nc4cccc5c4CN(C4CCC(=O)NC4=O)C5=O)cc3OC)NC2N1Cc1ccc(Cl)s1 (stereo partly drawn) [UB-180678]	DC50	< 10 nM
CC[C@@H]1CN(C)c2cnc(Nc3ccc(C(=O)NCCOCCOCCOCCNCCC(=O)Nc4cccc5c4CN(C4CCC(=O)NC4=O)C5=O)cc3OC)nc2N1Cc1ccc(Cl)s1 (stereo partly drawn) [UB-180701]	DC50	< 10 nM
CC[C@@H]1C(=O)N(C)c2cnc(Nc3ccc(C(=O)NCc4cn(CCNCCCC(=O)Nc5cccc6c5CN(C5CCC(=O)NC5=O)C6=O)nn4)cc3OC)nc2N1C1CCCC1 (stereo partly drawn) [UB-180681]	DC50	< 10 nM
CC[C@@H]1C(=O)N(C)c2cnc(Nc3ccc(C(=O)NCCOCCNCCCCCCC(=O)Nc4cccc5c4CN(C4CCC(=O)NC4=O)C5=O)cc3OC)nc2N1Cc1ccc(Cl)s1 (stereo partly drawn) [UB-180675]	DC50	< 10 nM
CC[C@@H]1C(=O)N(C)c2cnc(Nc3ccc(C(=O)NCCOCCOCCOCCNCC(=O)Nc4cccc5c4CN(C4CCC(=O)NC4=O)C5=O)cc3OC)nc2N1C1CCCC1 (stereo partly drawn) [UB-180663]	DC50	< 10 nM
CC[C@@H]1c2c(C#N)ncn2-c2cnc(Nc3ccc(C(=O)NCCOCCOCCOCCOCC(=O)N[C@H](C(=O)N4C[C@H](O)C[C@H]4C(=O)NCc4ccc(-c5scnc5C)cc4)C(C)(C)C)cc3OC)nc2N1C1CCCC1 [UB-180525]	DC50	> 1000 nM
CC[C@@H]1C(=O)N(C)c2cnc(Nc3ccc(C(=O)NCc4cn(CCNCCC(=O)Nc5cccc6c5CN(C5CCC(=O)NC5=O)C6=O)nn4)cc3OC)nc2N1C1CCCC1 (stereo partly drawn) [UB-180680]	DC50	< 10 nM
CC[C@@H]1C(=O)N(C)c2cnc(Nc3ccc(C(=O)NC4CCN(CCNCCOCC(=O)Nc5cccc6c5CN(C5CCC(=O)NC5=O)C6=O)CC4)cc3OC)nc2N1Cc1ccc(Cl)s1 (stereo partly drawn) [UB-180711]	DC50	< 10 nM

**Query** // query DC50 value for entry CC[C@@H]1C(=O)N(C)c2cnc(Nc3ccc(C(=O)NCCCNCCCCC(=O)Nc4cccc5c4CN(C4CCC(=O)NC4=O)C5=O)cc3OC)nc2N1Cc1ccc(Cl)s1 (stereo partly drawn) [UB-180673]
**Result** 10 to 100 nM

**Query** Which measured DC50 value corresponds to CC[C@@H]1C(=O)N(C)c2cnc(Nc3ccc(C(=O)NCCOCCOCCOCC(=O)Nc4cccc5c4CN(C4CCC(=O)NC4=O)C5=O)cc3OC)nc2N1Cc1ccc(Br)cc1 (stereo partly drawn) [UB-180566] ?
**Result** < 10 nM
